Can you tell me cell viability for the items I'm about to list?
test system: Calu-3; assay: cell viability relative to DMSO; higher = less toxic; conditions: 72 h; 10000 nM
Respond numerically; units are % and should not be typed.

Problem: Please tell me the measured cell viability for C[C@@H](NC(=O)[C@@H](N)Cc1ccc(O)cc1)C(=O)NCC(=O)N(C)[C@@H](Cc1ccccc1)C(=O)N[C@H](CO)CC[S+](C)[O-] (stereo partly drawn) ; system: Calu-3.
Result: 92.6

Problem: Please report cell viability with Calu-3 for item C[C@H](NC(=O)c1sccc1OCc1ccc(Cl)cc1)c1ccccc1 .
Result: 98.1

Problem: Please look at CCC/N=C1\S/C(=C\c2ccc(OC[C@H](O)CO)c(Cl)c2)C(=O)N1c1ccccc1C and tell me its recorded cell viability on Calu-3.
Result: 108

Problem: Write cell viability of CC(C)(C)c1ccc(-c2nc3ccccc3[nH]2)cc1 ; system used: Calu-3
Result: 49.4

Problem: Lab note: Calu-3 assay, enter cell viability for C[C@H]1[C@H](OC(=O)CCC(=O)O)O[C@@H]2O[C@@]3(C)CC[C@H]4[C@H](C)CC[C@@H]1[C@@]24OO3 [artesunate] here
Result: 88

Problem: Provide cell viability, recorded with Calu-3, of C[N+]1([O-])[C@@H]2CC[C@H]1C[C@@H](OC(=O)C(CO)c1ccccc1)C2 (stereo partly drawn) [atropine-oxide]
Result: 102

Problem: Report value only: cell viability, Calu-3, CCCCC(=O)O[C@H]1CC[C@H]2[C@@H]3CCc4cc(O)ccc4[C@H]3CC[C@]12C [ESTRADIOL VALERATE]
Result: 83.8

Problem: Identify measured cell viability obtained with Calu-3 for CC1(C)CN(C(=O)c2ccc(-c3cccc4nc(NC(=O)C5CC5)nn34)cc2)C1 .
Result: 92.2
